The origin of these recorded values is paper PMC11223215.

# experiment description: Cytotoxicity on MRC-5 cells
# Format: cell-based
# measurement setup: MRC-5 SV2 human fetal lung fibroblasts; MRC-5 human fetal lung fibroblasts cytotoxicity
property name: CC50 at 3 days

**Query** Answer with the recorded CC50 at 3 days for the compound listed here: Cc1ncc([N+](=O)[O-])n1CCO [MNZ(L), 2-methyl-5-nitro-1H-imidazole-1-ethanol]
**Result** > 5.64 µg/mL
